assay: Observed second order rate constant
Assign Fulfilled whenever K2 does not fall below 0.2 min⁻¹; assign Not fulfilled whenever it does.

// inclusive: K2 at least 0.2 min⁻¹? input: CC(=O)Oc1ccccc1C(=O)OCC(=O)N(C(C)C)C(C)C Not fulfilled

// inclusive: K2 at least 0.2 min⁻¹? input: CC(=O)Oc1ccccc1C(=O)OCC(=O)N(C)CCO Not fulfilled

// inclusive: K2 at least 0.2 min⁻¹? input: CSCOC(=O)c1ccccc1OC(C)=O Fulfilled

// inclusive: K2 at least 0.2 min⁻¹? input: CCOC(=O)COC(=O)c1ccccc1OC(C)=O Fulfilled

// inclusive: K2 at least 0.2 min⁻¹? input: COC(=O)c1ccccc1OC(C)=O Fulfilled

// inclusive: K2 at least 0.2 min⁻¹? input: CCNC(=O)COC(=O)c1ccccc1OC(C)=O Fulfilled

// inclusive: K2 at least 0.2 min⁻¹? input: CC(=O)Oc1ccccc1C(=O)OCCN(C)C.Cl Fulfilled
